target_system: Factor X (FX), P00742
Sequence (P00742 whole entry, looked up): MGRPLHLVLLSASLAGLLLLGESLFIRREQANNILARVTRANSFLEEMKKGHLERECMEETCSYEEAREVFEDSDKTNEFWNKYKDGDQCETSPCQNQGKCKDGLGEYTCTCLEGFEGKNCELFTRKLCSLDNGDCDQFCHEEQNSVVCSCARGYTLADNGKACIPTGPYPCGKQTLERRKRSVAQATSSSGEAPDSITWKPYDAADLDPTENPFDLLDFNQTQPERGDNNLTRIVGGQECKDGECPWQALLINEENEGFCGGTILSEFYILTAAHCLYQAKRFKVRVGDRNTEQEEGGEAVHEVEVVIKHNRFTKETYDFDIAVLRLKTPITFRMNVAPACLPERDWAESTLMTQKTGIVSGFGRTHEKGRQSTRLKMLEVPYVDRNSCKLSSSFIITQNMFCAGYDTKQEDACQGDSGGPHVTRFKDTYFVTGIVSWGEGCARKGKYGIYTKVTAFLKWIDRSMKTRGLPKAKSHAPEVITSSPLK
Please respond with reported kcat/KM for FX activation (Xase: FVIIIa, PC/PS vesicles, Ca2+) for every item in the list.
Record the value in M⁻¹ s⁻¹, omitting the unit from your answer.

# input For the protein FIXa-Y155F/K247N/N249S/R318Y/E410N (protein) chain 1: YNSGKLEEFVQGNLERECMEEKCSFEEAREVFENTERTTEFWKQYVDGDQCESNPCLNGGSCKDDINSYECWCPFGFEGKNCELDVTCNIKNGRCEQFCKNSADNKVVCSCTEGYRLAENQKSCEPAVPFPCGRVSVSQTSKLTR chain 2: VVGGEDAKPGQFPWQVVLNGKVDAFCGGSIVNEKWIVTAAHCVETGVKITVVAGEHNIEETEHTEQNRSVIRIIPHHNYNAAINKYNHDIALLELDEPLVLNSYVTPICIADKEYTNIFLKFGSGYVSGWGRVFHKGYSALVLQYLRVPLVDRATCLRSTKFTIYNNMFCAGFHEGGRDSCQGDSGGPHVTEVEGTSFLTGIISWGEECAMKGKYGIYTKVSRYVNWIKNKTKLT , give its reported kcat/KM for FX activation (Xase: FVIIIa, PC/PS vesicles, Ca2+).
# output 7.2e+07

# input For the protein FIXa-Y155F/K247N/N249S/R318Y/R338E (protein) chain 1: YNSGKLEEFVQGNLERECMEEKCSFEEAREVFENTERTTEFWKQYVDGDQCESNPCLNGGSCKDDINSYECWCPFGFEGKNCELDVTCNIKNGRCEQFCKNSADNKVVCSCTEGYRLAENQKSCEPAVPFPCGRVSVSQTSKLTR chain 2: VVGGEDAKPGQFPWQVVLNGKVDAFCGGSIVNEKWIVTAAHCVETGVKITVVAGEHNIEETEHTEQNRSVIRIIPHHNYNAAINKYNHDIALLELDEPLVLNSYVTPICIADKEYTNIFLKFGSGYVSGWGRVFHKGYSALVLQYLRVPLVDRATCLESTKFTIYNNMFCAGFHEGGRDSCQGDSGGPHVTEVEGTSFLTGIISWGEECAMKGKYGIYTKVSRYVNWIKEKTKLT , give its reported kcat/KM for FX activation (Xase: FVIIIa, PC/PS vesicles, Ca2+).
# output 2.9e+08

# input For the protein FIXa-Y155F/K247N/N249S/T343R/E410N (protein) chain 1: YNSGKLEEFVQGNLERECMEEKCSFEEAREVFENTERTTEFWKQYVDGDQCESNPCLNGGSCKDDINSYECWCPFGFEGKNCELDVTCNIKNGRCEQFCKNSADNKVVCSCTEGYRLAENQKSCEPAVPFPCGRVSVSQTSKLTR chain 2: VVGGEDAKPGQFPWQVVLNGKVDAFCGGSIVNEKWIVTAAHCVETGVKITVVAGEHNIEETEHTEQNRSVIRIIPHHNYNAAINKYNHDIALLELDEPLVLNSYVTPICIADKEYTNIFLKFGSGYVSGWGRVFHKGRSALVLQYLRVPLVDRATCLRSTKFRIYNNMFCAGFHEGGRDSCQGDSGGPHVTEVEGTSFLTGIISWGEECAMKGKYGIYTKVSRYVNWIKNKTKLT , give its reported kcat/KM for FX activation (Xase: FVIIIa, PC/PS vesicles, Ca2+).
# output 2.8e+08

# input For the protein FIXa-Y155F/K247N/N249S/R338E/T343R/E410N (protein) chain 1: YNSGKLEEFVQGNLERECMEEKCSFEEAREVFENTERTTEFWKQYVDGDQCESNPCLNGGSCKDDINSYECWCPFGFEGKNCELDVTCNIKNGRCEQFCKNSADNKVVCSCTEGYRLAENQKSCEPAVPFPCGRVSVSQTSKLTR chain 2: VVGGEDAKPGQFPWQVVLNGKVDAFCGGSIVNEKWIVTAAHCVETGVKITVVAGEHNIEETEHTEQNRSVIRIIPHHNYNAAINKYNHDIALLELDEPLVLNSYVTPICIADKEYTNIFLKFGSGYVSGWGRVFHKGRSALVLQYLRVPLVDRATCLESTKFRIYNNMFCAGFHEGGRDSCQGDSGGPHVTEVEGTSFLTGIISWGEECAMKGKYGIYTKVSRYVNWIKNKTKLT , give its reported kcat/KM for FX activation (Xase: FVIIIa, PC/PS vesicles, Ca2+).
# output 1.8e+08

# input For the protein FIXa-Y155F/K247N/N249S/R403E/E410N (protein) chain 1: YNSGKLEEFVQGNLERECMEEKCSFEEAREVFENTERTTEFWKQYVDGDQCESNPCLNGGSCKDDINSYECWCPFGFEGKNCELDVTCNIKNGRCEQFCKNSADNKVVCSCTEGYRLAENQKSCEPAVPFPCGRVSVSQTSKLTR chain 2: VVGGEDAKPGQFPWQVVLNGKVDAFCGGSIVNEKWIVTAAHCVETGVKITVVAGEHNIEETEHTEQNRSVIRIIPHHNYNAAINKYNHDIALLELDEPLVLNSYVTPICIADKEYTNIFLKFGSGYVSGWGRVFHKGRSALVLQYLRVPLVDRATCLRSTKFTIYNNMFCAGFHEGGRDSCQGDSGGPHVTEVEGTSFLTGIISWGEECAMKGKYGIYTKVSEYVNWIKNKTKLT , give its reported kcat/KM for FX activation (Xase: FVIIIa, PC/PS vesicles, Ca2+).
# output 2.4e+07

# input For the protein FIXa-Y155F/K247N/N249S/R318Y/T343R/R403E/E410N (protein) chain 1: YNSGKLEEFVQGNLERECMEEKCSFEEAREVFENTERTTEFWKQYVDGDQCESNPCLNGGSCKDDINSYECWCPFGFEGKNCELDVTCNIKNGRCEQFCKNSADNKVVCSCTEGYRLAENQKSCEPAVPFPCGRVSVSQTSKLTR chain 2: VVGGEDAKPGQFPWQVVLNGKVDAFCGGSIVNEKWIVTAAHCVETGVKITVVAGEHNIEETEHTEQNRSVIRIIPHHNYNAAINKYNHDIALLELDEPLVLNSYVTPICIADKEYTNIFLKFGSGYVSGWGRVFHKGYSALVLQYLRVPLVDRATCLRSTKFRIYNNMFCAGFHEGGRDSCQGDSGGPHVTEVEGTSFLTGIISWGEECAMKGKYGIYTKVSEYVNWIKNKTKLT , give its reported kcat/KM for FX activation (Xase: FVIIIa, PC/PS vesicles, Ca2+).
# output 1.6e+08

# input For the protein FIXa-Y155F/K247N/N249S/R338E/T343R (protein) chain 1: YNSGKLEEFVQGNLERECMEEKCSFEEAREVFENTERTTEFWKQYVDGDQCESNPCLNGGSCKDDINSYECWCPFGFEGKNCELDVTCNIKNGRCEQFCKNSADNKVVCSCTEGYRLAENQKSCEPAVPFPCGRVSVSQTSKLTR chain 2: VVGGEDAKPGQFPWQVVLNGKVDAFCGGSIVNEKWIVTAAHCVETGVKITVVAGEHNIEETEHTEQNRSVIRIIPHHNYNAAINKYNHDIALLELDEPLVLNSYVTPICIADKEYTNIFLKFGSGYVSGWGRVFHKGRSALVLQYLRVPLVDRATCLESTKFRIYNNMFCAGFHEGGRDSCQGDSGGPHVTEVEGTSFLTGIISWGEECAMKGKYGIYTKVSRYVNWIKEKTKLT , give its reported kcat/KM for FX activation (Xase: FVIIIa, PC/PS vesicles, Ca2+).
# output 7.3e+08
